Test system: HT29 colon
Experiment: NCI tumour cell line growth inhibition, 48 h
Measurement Name: TGI

INSERT INTO measurements (compound, value_observed) VALUES
  ('O=[N+]([O-])C1Cc2ccccc2OC1c1ccccc1 (configuration not stated)', '> 100 µM'),
  ('CC(C)(C)C1CCC2c3c([nH]c4ccccc34)C3C(=O)N(c4ccccc4)C(=O)C3C2C1 (configuration not stated)', '> 100 µM'),
  ('CC(C)(C)C(=O)OCC1CCC(n2cnc3c(=O)[nH]c(N)nc32)O1 (configuration not stated)', '> 100 µM'),
  ('Nc1ccc(C(=O)c2cn(CCN3CCOCC3)c3ccccc23)c2ccccc12', '55.9 µM'),
  ('CC(=O)NC1=C[C@@H]([C@H]2COC(C)(C)O2)OC1=O', '> 100 µM'),
  ('O=Cc1ccc(-c2ccc(-c3nc4ccccc4o3)cc2)o1', '> 100 µM');

Hi! Can you tell me TGI for each of these compounds?
1. Cc1cn([C@@H]2O[C@H](CO[Si](C)(C)C(C)(C)C)[C@]3(O[C@H]3C(=O)NN)[C@H]2O[Si](C)(C)C(C)(C)C)c(=O)[nH]c1=O
2. CN(Cc1cc(Cl)cc(Cl)c1)CC(C(=O)c1ccccc1)c1ccccc1 (configuration not stated)
3. COC(C(=O)NCCCCNC(=O)C(OC)c1ccccc1)c1ccccc1 (configuration not stated)
4. Cc1csc(/N=C\c2c(O)c3ccccc3oc2=O)n1
5. COC(=O)c1cnc(Cl)cn1
6. CN(C)C=C1C(Cl)=C(C=O)CC(C=O)=C1Cl

Response:
1: 7.79 µM; 2: 7.91 µM; 3: > 100 µM; 4: > 100 µM; 5: > 100 µM; 6: 30 µM

Values were extracted from PubChem BioAssay (NCI).
